target: Tubulin (Bos taurus, UniProt Q6B856+Q862L2+Q862F3); test: Inhibition of bovine tubulin polymerization by turbidity assay; assay type: protein assay
Please respond with reported IC50 for every item in the list.
State just the number; it will be interpreted in µM.

[ask] Name the reported IC50 value associated with the compound `Nc1nonc1-c1nc2ccccc2n1Cc1cccc(Br)c1`
[reply] 2.04

[ask] I have this compound here, `Nc1nonc1-c1nc2ccccc2n1Cc1cccc2ccccc12` , and I need its recorded IC50.
[reply] 7.03

[ask] May I ask what IC50 has been recorded for `Nc1nonc1-c1nc2ccccc2n1CC(=O)Nc1ccccc1Cl` ?
[reply] 7.36

[ask] Suppose we examine the compound `Nc1nonc1-c1nc2ccccc2n1Cc1cccc(C(F)(F)F)c1` ; what IC50 value has been reported?
[reply] 13.27

[ask] Could you tell me which IC50 is on file for `Nc1nonc1-c1nc2ccccc2n1Cc1cccc(F)c1` ?
[reply] 7.9

====

system: Paracentrotus lividus; assay: Antiproliferative activity in sea urchin embryo assessed as antimitotic activity by measuring cleavage arrest exposed for 8 to 20 mins after fertilization and 45 to 55 mins before first mitotic cycle completion measured 2.5 to […] after fertilization; type: functional
experimental_endpoint: EC

[ask] Please tell me: EC of `Nc1nonc1-c1nc2ccccc2n1Cc1nnn[nH]1` , system Paracentrotus lividus?
[reply] >4 µM

[ask] Which measured EC belongs to `Nc1nonc1-c1nc2cc(F)ccc2[nH]1` , tested on Paracentrotus lividus?
[reply] >4 µM

[ask] Param readout = EC; param system = Paracentrotus lividus; param query = `Cc1cccc(C)c1NC(=O)Cn1c(-c2nonc2N)nc2ccccc21` ; response: value
[reply] >4 µM

[ask] Record `CC(=O)Nc1nonc1-c1nc2ccccc2n1Cc1cccc(C(F)(F)F)c1` : what is its EC with Paracentrotus lividus?
[reply] >4 µM

[ask] So what EC did `COc1cc(Cn2c(-c3nonc3N)nc3ccccc32)ccc1C` get with Paracentrotus lividus?
[reply] 2 µM

[ask] // map `C#CCn1c(-c2nonc2N)nc2ccccc21` to recorded EC (system: Paracentrotus lividus)
[reply] >4 µM

====

Could you please report measured EC for the items listed next?
tested on: Paracentrotus lividus; test: Antiproliferative activity in sea urchin embryo assessed as antimitotic activity by measuring cleavage arrest exposed for 8 to 20 mins after fertilization and 45 to 55 mins before first mitotic cycle completion measured 2.5 to […] after fertilization; assay type: functional

[ask] Returns the measured EC for the input compound. Input: `N#Cc1ccc(Cn2c(-c3nonc3N)nc3ccccc32)cc1`
[reply] >4 µM

[ask] Endpoint output: EC of CC[C@]1(O)C[C@@H]2CN(CCc3c([nH]c4ccccc34)[C@@](C(=O)OC)(c3cc4c(cc3OC)N(C)[C@H]3[C@@](O)(C(=O)OC)[C@H](OC(C)=O)[C@]5(CC)C=CCN6CC[C@]43[C@@H]65)C2)C1 [VINBLASTINE] . Value?
[reply] 0.2 µM

[ask] Record request: EC value, item `Nc1nonc1-c1nc2ccccc2n1Cc1ccccn1`
[reply] >4 µM

[ask] Given the entry `O=C(Nc1nonc1-c1nc2ccccc2n1Cc1ccncc1)c1ccncc1` , report its measured EC.
[reply] >4 µM

[ask] Please report the recorded EC for `COc1cccc(Cn2c(-c3nonc3NC(C)=O)nc3ccccc32)c1` .
[reply] >4 µM

[ask] Would you kindly share the measured EC for `CCC(=O)Nc1nonc1-c1nc2ccccc2n1Cc1ccc(F)cc1Cl` ?
[reply] >4 µM

[ask] Query: EC; subject: `COc1ccc2[nH]c(-c3nonc3-n3cccc3)nc2c1`
[reply] >4 µM

[ask] Which EC value is on record for `COc1ccc(Cn2c(-c3nonc3N)nc3cc(C(F)(F)F)ccc32)cc1` ?
[reply] >4 µM

[ask] Give its EC value. Item: `CC(=O)Nc1nonc1-c1nc2ccccc2n1Cc1ccccn1`
[reply] >4 µM

[ask] // query EC value for entry `Nc1nonc1-c1nc2ccccc2n1CC(=O)NCc1ccc(F)cc1`
[reply] >4 µM

[ask] Requested field: EC. Item: `Nc1nonc1-c1nc2ccccc2n1CC(=O)Nc1ccc(F)c(Cl)c1`
[reply] >4 µM

[ask] For `CC(C)(C)c1ccc(Cn2c(-c3nonc3N)nc3ccccc32)cc1` , what is its reported EC?
[reply] >4 µM

[ask] Bench note: what EC did `Nc1nonc1-c1nc2ccccc2[nH]1` show?
[reply] >4 µM

[ask] Please look up its EC: COc1cc2c(c(OC)c1OC)-c1ccc(OC)c(=O)cc1[C@@H](NC(C)=O)CC2 [COLCHICINE]
[reply] 100 µM

[ask] Any idea what EC was measured for `N#CCn1c(-c2nonc2N)nc2ccccc21` ?
[reply] >4 µM

[ask] Please report the recorded EC for `CN(C)c1nc(N)nc(Cn2c(-c3nonc3N)nc3ccccc32)n1` .
[reply] >4 µM

[ask] Entry `Nc1nonc1-c1nc2ccccc2n1CC(=O)Nc1ccc2c(c1)COC2=O` has what EC?
[reply] 4 µM

[ask] Find the recorded EC belonging to `Nc1nonc1-c1nc2cc3ccccc3cc2[nH]1` and report it.
[reply] 4 µM

[ask] Quick check: EC of `Nc1nc(Cn2c(-c3nonc3N)nc3ccccc32)nc(N2CCCCC2)n1` ?
[reply] >4 µM

[ask] So what does the record say about EC for `C=CCn1c(-c2nonc2NC(C)=O)nc2ccccc21` ?
[reply] >4 µM

[ask] For the compound `N#Cc1ccc2[nH]c(-c3nonc3N)nc2c1` , what EC is on record?
[reply] >4 µM

[ask] Which EC is listed for `CC(=O)Nc1nonc1-c1nc2ccccc2n1Cc1ccncc1` ?
[reply] >4 µM

====

test: Cytotoxicity against human NCI60 cells assessed as cell growth at 10 uM; type: functional; details: read-out: Activity
experimental_endpoint: growth at 10 µM (%)
Please give a number only; it is taken to be in %.

[ask] I have this compound here, `Nc1nonc1-c1nc2ccccc2n1Cc1c(F)cccc1Cl` , and I need its recorded growth at 10 µM.
[reply] 91.9

[ask] Data request, read-out growth at 10 µM, for `N#Cc1ccc2[nH]c(-c3nonc3N)nc2c1`
[reply] 107

[ask] Could you tell me which growth at 10 µM is on file for `COc1ccc(Cn2c(-c3nonc3N)nc3cc(C(F)(F)F)ccc32)cc1` ?
[reply] 81.1

[ask] Given the entry `Nc1nonc1-c1nc2c(Cl)cccc2[nH]1` , report its measured growth at 10 µM.
[reply] 99.8

[ask] # lookup: growth at 10 µM of `Nc1nonc1-c1nc2cc(Cl)ccc2[nH]1`
[reply] 97.1

[ask] Which growth at 10 µM reading was recorded for the compound `c1ccc2[nH]c(-c3nonc3-n3cccc3)nc2c1` ?
[reply] 104

[ask] Given the entry `Nc1nonc1-c1nc2ccccc2n1CCO` , report its measured growth at 10 µM.
[reply] 102

[ask] Returns the measured growth at 10 µM for the input compound. Input: `N#Cc1ccc(Cn2c(-c3nonc3N)nc3ccccc32)cc1`
[reply] 79.8

[ask] Item under review: `N#CCn1c(-c2nonc2N)nc2ccccc21` . Reported growth at 10 µM?
[reply] 102

[ask] GET /values?readout=growth at 10 µM&item= `Nc1nonc1-c1nc2cc(F)ccc2[nH]1`
[reply] 97.8

[ask] Name the reported growth at 10 µM value associated with the compound `Cc1cccc(C)c1NC(=O)Cn1c(-c2nonc2N)nc2ccccc21`
[reply] 90.2

[ask] Could you share which growth at 10 µM value was measured for `Nc1nonc1-c1nc2ccccc2n1Cc1ccc(Cl)cc1` ?
[reply] 85

====

test: Cytotoxicity against human NCI60 cells assessed as cell growth at 10 uM; format: functional; details: read-out: Activity
experimental_endpoint: growth at 10 µM

[ask] Name the recorded growth at 10 µM for `COc1ccc2[nH]c(-c3nonc3-n3cccc3)nc2c1` .
[reply] 104%

[ask] Could you share which growth at 10 µM value was measured for `CC(=O)Nc1nonc1-c1nc2ccccc2n1Cc1ccc(C#N)cc1` ?
[reply] 94.1%

[ask] Looking for the measured growth at 10 µM of `Cn1c(-c2nonc2NC(=O)c2ccc(F)cc2)nc2ccccc21` , can you help?
[reply] 99.5%

[ask] Which measured growth at 10 µM value corresponds to `CCC(=O)Nc1nonc1-c1nc2ccccc2n1Cc1ccc(F)cc1Cl` ?
[reply] 64.5%

[ask] What measured growth at 10 µM goes with `Nc1nonc1-c1nc2ccccc2n1CC(=O)NCc1ccc(F)cc1` ?
[reply] 102%

[ask] Consider the molecule `CC(=O)Nc1nonc1-c1nc2ccccc2n1Cc1ccncc1` and give its measured growth at 10 µM.
[reply] 101%

[ask] Please report the recorded growth at 10 µM for `CN(C)c1nc(N)nc(Cn2c(-c3nonc3N)nc3ccccc32)n1` .
[reply] 80.8%

[ask] Can you look up the measured growth at 10 µM of `Nc1nonc1-c1nc2ccccc2n1Cc1cc2c(cc1Br)OCO2` for me?
[reply] 86.1%

[ask] Please give the measured growth at 10 µM for this molecule: `C#CCn1c(-c2nonc2N)nc2ccccc21`
[reply] 99.6%

[ask] For `Cc1cc(C)cc(NC(=O)Cn2c(-c3nonc3N)nc3ccccc32)c1` , what is its reported growth at 10 µM?
[reply] 109%
